# assayed system: T1, murine GPC3 (6938-GP; R&D systems), biotinylated (murine, UniProt Q8CFZ4 25-558, limits assumed, biotinylated using standard NHS chemistry)
# T1 construct: Bought protein; also called mouse GPC3
# T1 sequence (Q8CFZ4 25-558 limits assumed): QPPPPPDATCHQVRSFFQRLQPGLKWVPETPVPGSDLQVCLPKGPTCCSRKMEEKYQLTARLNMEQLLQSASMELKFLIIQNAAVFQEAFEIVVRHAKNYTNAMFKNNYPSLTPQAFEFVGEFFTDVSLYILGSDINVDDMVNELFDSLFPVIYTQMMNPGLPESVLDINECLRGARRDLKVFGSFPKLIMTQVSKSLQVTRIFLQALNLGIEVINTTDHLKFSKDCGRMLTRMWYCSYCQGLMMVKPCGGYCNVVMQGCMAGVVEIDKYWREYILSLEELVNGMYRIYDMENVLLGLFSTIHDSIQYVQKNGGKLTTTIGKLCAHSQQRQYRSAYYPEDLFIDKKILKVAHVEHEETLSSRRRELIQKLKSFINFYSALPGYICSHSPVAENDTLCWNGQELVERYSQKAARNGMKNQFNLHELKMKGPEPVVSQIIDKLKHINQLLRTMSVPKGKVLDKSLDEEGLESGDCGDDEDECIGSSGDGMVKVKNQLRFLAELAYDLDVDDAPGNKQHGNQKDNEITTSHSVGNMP
# test name: SPR (Biacore T200), biotinylated GPC3 captured on chip, mutein in flow
Kd strictly under 200 pM means true (1); at 200 pM or over means false (0).

Check out these entries, answers already filled in.
lipocalin mutein of SEQ ID NO: 13 (designed binder, hNGAL (Lcn2) mutein; also called optimized GPC3 specific lipocalin mutein) QDSTSDLIPAPPLSKVPLQQNFQDNQFQGKWYVVGRAGNLGLREDKDPPKMWATIYELKEDKSYDVTNVRFARKKCMYSIGTFVPGSQPGEFTLGQIKSEPGSTANLVRVVSTNYNQHAMVFFKEVYQNREIFFITLYGRTKELTSELKENFIRFSKSLGLPENHIVFPVPIDQCIDGSAWSHPQFEK ... true (1)
lipocalin mutein of SEQ ID NO: 8 (designed binder, hNGAL (Lcn2) mutein; also called optimized GPC3 specific lipocalin mutein) QDSTSDLIPAPPLSKVPLQQNFQDNQFQGKWYVVGRAGNVGLREDKDPPKMWATIYELKEDKSYDVTNVRFARKKCLYSIGTFVPGSQPGEFTLGQIKSEPGNTANLVRVVSTNYNQHAMVFFKEVYQNREIFFIILYGRTKELTSELKENFIRFSKSLGLPENHIVFPVPIDQCIDGSAWSHPQFEK ... true (1)
lipocalin mutein of SEQ ID NO: 11 (designed binder, hNGAL (Lcn2) mutein; also called optimized GPC3 specific lipocalin mutein) QDSTSDLIPAPPLSKVPLQQNFQDNQFQGKWYVVGRAGNVALREDKDPPKMRATIYELKEDKSYDVTAVRFARKKCLYSIGTFVPGSQPGEFTLGRIKSEPGYTANLVRVVSTNYNQHAMVFFKEVYQNREIFFIILYGRTKELTSELKENFIRFSKSLGLPENHIVFPVPIDQCIDGSAWSHPQFEK ... true (1)
lipocalin mutein of SEQ ID NO: 4 (designed binder, hNGAL (Lcn2) mutein; also called non-optimized GPC3-specific Lcn2 mutein; mother clone) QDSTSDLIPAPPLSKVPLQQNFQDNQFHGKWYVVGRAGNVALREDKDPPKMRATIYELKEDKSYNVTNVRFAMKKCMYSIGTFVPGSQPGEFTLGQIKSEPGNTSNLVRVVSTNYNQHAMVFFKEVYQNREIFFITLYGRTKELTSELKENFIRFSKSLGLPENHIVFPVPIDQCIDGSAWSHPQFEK ... false (0)
lipocalin mutein of SEQ ID NO: 7 (designed binder, hNGAL (Lcn2) mutein; also called optimized GPC3 specific lipocalin mutein) QDSTSDLIPAPPLSKVPLQQNFQDNQFQGKWYVVGVAGNGMLREDKDPLKMRATIYELKEDKSYDVTSVAFRNKKCHYKIGTFVPGSQPGEFTLGQIKSGPGETSNLVRVVSTNYNQHAMVFFKEVRQNREWFFITLYGRTKELTSELKENFIRFSKSLGLPENHIVFPVPIDQCIDGSAWSHPQFEK ... true (1)
lipocalin mutein of SEQ ID NO: 5 (designed binder, hNGAL (Lcn2) mutein; also called optimized GPC3 specific lipocalin mutein) QDSTSDLIPAPPLSKVPLQQNFQDNQFQGKWYVVGVAGNALLREDKDPLKMRATIYELKEDKSYDVTVVSFWRKKCHYKIGTFVPGSQPGEFTLGDIKSGPGQTSNLVRVVSTNYNQHAMVFFKEVRQNREWFAITLYGRTKELTSELKENFIRFSKSLGLPENHIVFPVPIDQCIDGSAWSHPQFEK ... false (0)
lipocalin mutein of SEQ ID NO: 3 (designed binder, hNGAL (Lcn2) mutein; also called non-optimized GPC3-specific Lcn2 mutein; mother clone) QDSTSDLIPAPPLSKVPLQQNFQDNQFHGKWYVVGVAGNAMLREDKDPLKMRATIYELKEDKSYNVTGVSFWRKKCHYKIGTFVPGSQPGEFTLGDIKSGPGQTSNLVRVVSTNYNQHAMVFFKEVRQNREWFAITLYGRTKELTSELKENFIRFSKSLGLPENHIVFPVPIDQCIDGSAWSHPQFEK ... false (0)
lipocalin mutein of SEQ ID NO: 16 (designed binder, hNGAL (Lcn2) mutein; also called optimized GPC3 specific lipocalin mutein) QDSTSDLIPAPPLSKVPLQQNFQDNQFQGKWYVVGRAGNVGLREDKDPPKMRATIYELKEDKSYDVTGVRFDSKKVTYSIGTFVPGSQPGEFTLGQIKSEPGNTANLVRVVSTNYNQHAMVFFKEVYQNREIFFIILYGRTKELTSELKENFIRFSKSLGLPENHIVFPVPIDQAIDGSAWSHPQFEK ... false (0)

Enquiry: API: query returns whether the binder falls strictly under 200 pM in Kd. Query: lipocalin mutein of SEQ ID NO: 6 (designed binder, hNGAL (Lcn2) mutein; also called optimized GPC3 specific lipocalin mutein) QDSTSDLIPAPPLSKVPLQQNFQDNQFQGKWYVVGVAGNVRLREDKDPPKMRATIYELKEDKSYDVTGVSFRGKKCHYKIGTFVPGSQPGEFTLGDIKSGPGETSNLVRVVSTNYNQHAMVFFKEVRQNREWFFITLYGRTKELTSELKENFIRFSKSLGLPENHIVFPVPIDQCIDGSAWSHPQFEK
Return: true (1)

Enquiry: Hi there! Is Kd for lipocalin mutein of SEQ ID NO: 10 (designed binder, hNGAL (Lcn2) mutein; also called optimized GPC3 specific lipocalin mutein) QDSTSDLIPAPPLSKVPLQQNFQDNQFQGKWYVVGRAGNGALREDKDPPKMWATIYELKEDKSYDVTNVRFARKKCVYSIGTFVPGSQPGEFTLGPIKSEPGNTASLVRVVSTNYNQHAMVFFKEVYQNREIFFIILYGRTKELTSELKENFIRFSKSLGLPENHIVFPVPIDQCIDGSAWSHPQFEK below 200 pM, do you know?
Return: true (1)

Enquiry: Would you kindly verify if Kd of lipocalin mutein of SEQ ID NO: 9 (designed binder, hNGAL (Lcn2) mutein; also called optimized GPC3 specific lipocalin mutein) QDSTSDLIPAPPLSKVPLQQNFQDNQFQGKWYVVGRAGNVGLREDKDPPKMWATIYELKEDKSYDVTNVRFARKKCTYSIGTFVPGSQPGEFTLGQIKSEPGGTANLVRVVSTNYNQHAMVFFKEVYQNREIFFIILYGRTKELTSELKENFIRFSKSLGLPENHIVFPVPIDQCIDGSAWSHPQFEK is strictly less than 200 pM?
Return: true (1)
